Biological target: PI3K α (Homo sapiens (Human))
Sequence (P42336 whole entry): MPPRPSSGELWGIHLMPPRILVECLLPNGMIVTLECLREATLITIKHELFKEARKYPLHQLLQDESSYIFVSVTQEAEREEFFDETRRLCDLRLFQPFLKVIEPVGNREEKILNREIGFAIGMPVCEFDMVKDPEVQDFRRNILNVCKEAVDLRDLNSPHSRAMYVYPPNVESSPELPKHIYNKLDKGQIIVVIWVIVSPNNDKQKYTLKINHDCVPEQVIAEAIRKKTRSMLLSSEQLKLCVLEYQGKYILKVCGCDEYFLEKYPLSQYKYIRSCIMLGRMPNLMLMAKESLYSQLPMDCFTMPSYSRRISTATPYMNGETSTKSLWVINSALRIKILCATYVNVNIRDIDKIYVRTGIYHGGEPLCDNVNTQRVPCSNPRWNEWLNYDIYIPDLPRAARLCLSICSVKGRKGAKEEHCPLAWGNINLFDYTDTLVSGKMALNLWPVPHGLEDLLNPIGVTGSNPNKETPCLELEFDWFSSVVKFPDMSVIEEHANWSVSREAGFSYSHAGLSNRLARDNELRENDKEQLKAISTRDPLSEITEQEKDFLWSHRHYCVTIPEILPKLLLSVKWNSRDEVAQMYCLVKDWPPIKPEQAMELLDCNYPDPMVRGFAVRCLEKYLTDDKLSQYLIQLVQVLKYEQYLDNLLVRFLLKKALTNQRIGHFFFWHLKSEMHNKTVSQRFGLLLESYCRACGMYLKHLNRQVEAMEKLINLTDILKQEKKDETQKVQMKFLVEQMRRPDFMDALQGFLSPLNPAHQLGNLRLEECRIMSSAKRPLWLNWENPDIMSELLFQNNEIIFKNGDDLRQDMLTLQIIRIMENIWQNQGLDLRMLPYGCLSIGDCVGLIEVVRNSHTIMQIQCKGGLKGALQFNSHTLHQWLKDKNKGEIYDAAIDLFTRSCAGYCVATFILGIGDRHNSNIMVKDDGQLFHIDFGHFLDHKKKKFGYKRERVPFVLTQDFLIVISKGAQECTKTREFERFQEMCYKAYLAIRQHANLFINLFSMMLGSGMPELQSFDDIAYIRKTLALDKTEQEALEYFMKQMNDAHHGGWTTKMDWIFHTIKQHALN
Sequence (P27986 whole entry partner): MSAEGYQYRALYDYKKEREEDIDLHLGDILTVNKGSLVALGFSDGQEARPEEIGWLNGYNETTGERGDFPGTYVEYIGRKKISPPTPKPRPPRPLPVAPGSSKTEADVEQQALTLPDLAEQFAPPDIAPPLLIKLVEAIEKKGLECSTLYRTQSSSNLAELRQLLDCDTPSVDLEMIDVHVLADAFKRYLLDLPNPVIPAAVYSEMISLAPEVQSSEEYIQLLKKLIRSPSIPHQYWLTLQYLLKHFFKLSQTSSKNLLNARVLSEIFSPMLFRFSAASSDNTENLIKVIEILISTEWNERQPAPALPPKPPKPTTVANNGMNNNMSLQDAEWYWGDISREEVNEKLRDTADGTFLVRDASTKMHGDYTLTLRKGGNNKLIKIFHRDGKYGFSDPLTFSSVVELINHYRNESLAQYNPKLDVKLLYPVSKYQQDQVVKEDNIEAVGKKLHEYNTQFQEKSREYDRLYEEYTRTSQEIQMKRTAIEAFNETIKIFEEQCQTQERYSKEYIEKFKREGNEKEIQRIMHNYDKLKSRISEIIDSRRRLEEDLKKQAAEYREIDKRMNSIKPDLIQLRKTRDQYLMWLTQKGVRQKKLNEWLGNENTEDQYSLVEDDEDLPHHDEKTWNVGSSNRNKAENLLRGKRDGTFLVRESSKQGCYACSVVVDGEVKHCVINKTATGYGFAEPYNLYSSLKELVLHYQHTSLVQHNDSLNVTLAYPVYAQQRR
pIC50: −log10 of the molar value.
Measured pIC50 values are reported for all entries that follow.

Worked examples, 2 compounds total:
Compound	Result
Nc1nc2cc(-c3ccc4ncc(C(=O)N5CCC(F)CC5)n4c3)ccc2o1	> 6.00
CS(=O)(=O)N1CCN(C2CN(c3cnc4ccc(-c5ccc6oc(N)nc6c5)cc4n3)C2)CC1	> 7.00

Retrieve pIC50 on PI3K α (Homo sapiens (Human)); query Nc1nc2ccc(-c3ccc4sc(N)nc4c3)cc2o1
> 7.00

Print PI3K α (Homo sapiens (Human)) pIC50 for Nc1nc2cc(-c3ccc4ncc(-c5ccncc5)nc4c3)ccc2o1 .
> 7.00

----------
Target: mTORC (Homo sapiens (Human), UniProt P42345)
Sequence (P42345 1360-2549): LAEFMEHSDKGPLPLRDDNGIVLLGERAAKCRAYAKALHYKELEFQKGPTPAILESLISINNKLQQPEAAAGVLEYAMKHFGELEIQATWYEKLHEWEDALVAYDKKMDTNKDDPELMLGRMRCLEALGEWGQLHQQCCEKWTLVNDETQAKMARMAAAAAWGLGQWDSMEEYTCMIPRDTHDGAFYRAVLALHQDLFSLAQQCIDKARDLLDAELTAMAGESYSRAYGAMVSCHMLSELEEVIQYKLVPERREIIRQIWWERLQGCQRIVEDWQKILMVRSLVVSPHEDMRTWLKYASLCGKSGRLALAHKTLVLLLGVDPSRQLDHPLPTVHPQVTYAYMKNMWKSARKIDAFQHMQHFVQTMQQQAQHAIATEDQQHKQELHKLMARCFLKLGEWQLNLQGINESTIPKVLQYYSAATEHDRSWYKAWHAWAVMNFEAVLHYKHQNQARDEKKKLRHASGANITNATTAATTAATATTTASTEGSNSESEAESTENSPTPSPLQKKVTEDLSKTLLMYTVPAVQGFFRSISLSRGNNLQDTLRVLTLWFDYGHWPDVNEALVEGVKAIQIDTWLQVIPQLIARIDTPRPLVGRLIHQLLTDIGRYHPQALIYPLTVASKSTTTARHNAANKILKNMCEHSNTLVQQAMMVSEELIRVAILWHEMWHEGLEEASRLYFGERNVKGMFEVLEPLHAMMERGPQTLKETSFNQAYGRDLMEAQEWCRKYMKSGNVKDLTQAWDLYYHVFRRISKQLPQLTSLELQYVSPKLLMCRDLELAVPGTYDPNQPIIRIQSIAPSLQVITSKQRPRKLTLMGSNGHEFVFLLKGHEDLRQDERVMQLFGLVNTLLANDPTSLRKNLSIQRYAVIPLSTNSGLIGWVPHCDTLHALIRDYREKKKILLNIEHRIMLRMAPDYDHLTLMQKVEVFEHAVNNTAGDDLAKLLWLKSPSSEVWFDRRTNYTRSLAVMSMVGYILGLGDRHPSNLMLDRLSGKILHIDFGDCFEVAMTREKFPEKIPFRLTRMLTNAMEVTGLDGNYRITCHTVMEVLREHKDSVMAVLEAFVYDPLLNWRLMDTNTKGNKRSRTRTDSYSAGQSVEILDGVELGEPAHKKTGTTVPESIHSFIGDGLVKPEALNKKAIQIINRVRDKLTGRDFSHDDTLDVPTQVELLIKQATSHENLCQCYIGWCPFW
Assay metric: IC50

Answered examples (8):
Given smiles	Target entity	IC50
Nc1nc2cc(-c3ccc4ncc(N5CCN(C(=O)C6(N)CC6)CC5)nc4n3)ccc2o1	mTORC (Homo sapiens (Human), UniProt P42345)	< 10 µM
Nc1nc2cc(-c3ccc4ncc(N5CC(N6CCOCC6)C5)nc4c3)c(F)cc2o1	mTORC (Homo sapiens (Human), UniProt P42345)	> 10 µM
Nc1nc2cc(-c3ccc4ncc(N5CC(N6CCN(CCO)CC6)C5)cc4n3)ccc2o1	mTORC (Homo sapiens (Human), UniProt P42345)	> 10 µM
CN1CCN(C2CN(c3cnc4ccc(-c5ccc6oc(N)nc6c5)cc4n3)C2)CC1=O	mTORC (Homo sapiens (Human), UniProt P42345)	> 10 µM
C[C@H]1CN(C2CN(c3cnc4ccc(-c5ccc6oc(N)nc6c5)nc4c3)C2)CCN1C	mTORC (Homo sapiens (Human), UniProt P42345)	> 10 µM
CC(C)[C@@H](N)C(=O)N1CCN(c2cnc3ccc(-c4ccc5oc(N)nc5c4)cc3n2)CC1	mTORC (Homo sapiens (Human), UniProt P42345)	< 10 µM
C[C@@H]1CN(C2CN(c3cnc4ccc(-c5ccc6oc(N)nc6c5)nc4n3)C2)CCN1	mTORC (Homo sapiens (Human), UniProt P42345)	> 10 µM
Nc1nc2cc(-c3ccc4ncnc(OC5CCOCC5)c4c3)ccc2o1	mTORC (Homo sapiens (Human), UniProt P42345)	< 0.1 µM

// fetch IC50 given entry Nc1nc2cc(-c3nc(N4CCOCC4)c4cnn(C5CCNCC5)c4n3)ccc2o1
< 1 µM

Supply reported IC50 belonging to this molecule: COc1ncc(-c2ccc3ncc(C(=O)N4CCOCC4)n3c2)cc1NS(=O)(=O)c1ccc(F)cc1F
< 1 µM

----------
Each entry below carries its measured IC50, system: UniProt P42336.

# annotated cases, reported IC50 shown
Compound	Assay metric	Result
CS(=O)(=O)N1CCN(c2cnc3ccc(-c4ccc5oc(N)nc5c4)cc3n2)CC1	IC50	< 100 nM
CC1CN(C2CN(c3cnc4ccc(-c5ccc6oc(N)nc6c5)nc4n3)C2)CCO1 (stereo not shown)	IC50	< 1000 nM
COc1ncc(-c2ccc3ncc(C(=O)N4CCOCC4)n3c2)cc1NS(=O)(=O)c1ccc(F)cc1F	IC50	< 100 nM
Nc1nc2cc(-c3ccc4nccc(NCCN5CCOCC5)c4c3)ccc2o1	IC50	< 100 nM
Nc1n[nH]c2c(-c3ccc4ncc(C(=O)N5CCOCC5)n4c3)cccc12	IC50	> 10000 nM

Give IC50 for CN1CCN(c2cnc3ccc(-c4ccc5oc(N)nc5c4)cc3n2)CC1 tested on UniProt P42336.
< 100 nM

Report IC50 on UniProt P42336 for this entry: Nc1nc2cc(-c3ccc4ncc(C(=O)N5CCOCC5)nc4c3)ccc2o1
< 10000 nM

Using UniProt P42336 as the test system, report measured IC50 of Nc1nc2cc(-c3ccc4ncc(C(=O)N5CC6(C5)OCCO6)n4c3)ccc2o1 .
< 100 nM

Please respond with reported IC50 (system UniProt P42336) for Nc1nc2cc(-c3ccc4ncc(-c5cccnc5)n4n3)ccc2o1 .
< 100 nM

State IC50 on UniProt P42336. Entry: CC(=O)n1nc(N)c2ccc(-c3ccc4oc(N)nc4c3)cc21
> 10000 nM
